The origin of these recorded values is ChEMBL document CHEMBL5608113.

Task for the reader: assign each of the following compounds its reported viability at 10 µM.
- Tested on: Colon cancer organoid
- experiment.summary: Targeting of F14 CAF-induced therapy resistance in O14 CRC organoid-stroma co-culture. Cell viability is reported without Gefitinib.
- Type: functional, Homo sapiens
- measurement.parameters: Homo sapiens, Concentration 10 uM; read-out: Cell Viability
Square brackets hold non-standard residues; d marks the D form. Peptide text beside a SMILES is read from it. Arg(Me) = CNC(=N)NCCC[C@H](N)C(=O)O; d4Pal = N[C@H](Cc1ccncc1)C(=O)O; azaGly = NNC(=O)O
Give bare numbers, in %.

The following compounds each have a reported value; give each one's viability at 10 µM.
1. CCOC(=O)Nc1cc(-c2ccc(C)c(NS(C)(=O)=O)c2)nn2c(C)nnc12
2. CC1=C(C#N)C(c2ccc3c(c2)c(NC(=O)c2ccccc2C)nn3C)C(C#N)=C(C)N1
3. CNC(=N)NCCC[C@H](NC(=O)[C@H](CC(C)C)NC(=O)NNC(=O)[C@H](Cc1ccccc1)NC(=O)[C@H](CO)NC(=O)[C@H](CC(N)=O)NC(=O)[C@@H](Cc1ccncc1)NC(=O)[C@H](N)Cc1ccc(O)cc1)C(=O)N[C@@H](Cc1ccccc1)C(N)=O [KISS1-305] (H-[dY][d4Pal]NSF[azaGly]L[Arg(Me)]F-NH2)
4. O=C(CCCCCCNC(=O)c1cnc(N(c2ccccc2)c2ccccc2)nc1)NO
5. Cn1c(C2(NC(=O)c3ccc(NCC4CCCCC4)nc3)CCC2)nc2ccc(/C=C/C(=O)O)cc21

[reply]
1: 59.2; 2: 109; 3: 119; 4: 141; 5: 101

The following compounds each have a reported value; give each one's viability at 10 µM.
1. Nc1nc(NCc2ccccc2)nc(-c2cccc(CO)c2)n1
2. O=C(N[C@H]1CCCCC/C=C\C2C[C@@]2(C(=O)O)NC(=O)[C@@H]2C[C@@H](Oc3ccncc3)CN2C1=O)OC1CCCC1 (some centres undefined)
3. CC(=O)c1cc(-c2ccccc2OCC2CC2)c2ncccn12
4. CNC(=O)c1ccccc1Nc1cc(Nc2ccc(N3CCOCC3)cc2OC)ncc1C(F)(F)F
5. CCNC(=O)c1cc2c(N3CCOC[C@@H]3C)ccnc2n1C

[reply]
[76, 102, 80.2, 25.2, 70.2]

---

- Test system: Colon cancer organoid
- experiment.summary: Targeting of F14 CAF-induced therapy resistance in O23 CRC organoid-stroma co-culture. Cell viability is reported with Gefitinib.
- Format: functional, Homo sapiens
- measurement.parameters: Homo sapiens, Concentration 10 uM; read-out: Cell Viability
experimental.endpoint: viability at 10 µM (%)
One number for each entry, in %.

>  <molecule>
COc1cccc2c1c(O)c(C(=O)N(C)c1ccc(C(F)(F)F)cc1)c(=O)n2C

>  <experimental.endpoint>
viability at 10 µM

>  <observed>
47.3

$$$$
>  <molecule>
Cc1cc(C)cc([C@@H]2c3cc(C)ccc3NC(=O)CN2C(=O)c2ccc(Br)s2)c1

>  <experimental.endpoint>
viability at 10 µM

>  <observed>
76

$$$$
>  <molecule>
COc1ccc2c(O[C@@H]3C[C@H]4C(=O)N[C@]5(C(=O)O)CC5/C=C\CCCCC[C@H](NC(=O)OC5CCCC5)C(=O)N4C3)cc(-c3csc(NC(=O)C(C)C)n3)nc2c1C (some centres undefined)

>  <experimental.endpoint>
viability at 10 µM

>  <observed>
63.1

$$$$

Next item in the queue.
[ask] Data request, read-out viability at 10 µM, for CCOC(=O)CCNc1cc(N2CCc3ccccc3CC2)nc(-c2cccnc2)n1
[reply] 90.8

---

- Test system: Colon cancer organoid
- experiment.summary: Targeting of F14 CAF-induced therapy resistance in O23 CRC organoid-stroma co-culture. Cell viability is reported with Gefitinib.
- Format: functional, Homo sapiens
- measurement.parameters: Homo sapiens, Concentration 10 uM; read-out: Cell Viability
Square brackets hold non-standard residues; d marks the D form. Peptide text beside a SMILES is read from it. Arg(Me) = CNC(=N)NCCC[C@H](N)C(=O)O; d4Pal = N[C@H](Cc1ccncc1)C(=O)O; azaGly = NNC(=O)O
Task for the reader: assign each of the following compounds its reported viability at 10 µM.
Numbers only, in %.

>  <compound>
N#CN1CC[C@@H](C(=O)Nc2nc3c(s2)CN(C(=O)CN=[N+]=[N-])CC3)C1 [JYQ88]

>  <test.target>
Colon cancer organoid

>  <experimental.endpoint>
viability at 10 µM

>  <observed>
45.5

$$$$
>  <compound>
Cc1ccc(NC(=O)Nc2cc(C(F)(F)F)ccc2F)cc1Nc1ccc2c(c1)NC(=O)/C2=C\c1ccc[nH]1

>  <test.target>
Colon cancer organoid

>  <experimental.endpoint>
viability at 10 µM

>  <observed>
82.1

$$$$
>  <compound>
CNC(=N)NCCC[C@H](NC(=O)[C@H](CC(C)C)NC(=O)NNC(=O)[C@H](Cc1ccccc1)NC(=O)[C@H](CO)NC(=O)[C@H](CC(N)=O)NC(=O)[C@@H](Cc1ccncc1)NC(=O)[C@H](N)Cc1ccc(O)cc1)C(=O)N[C@@H](Cc1ccccc1)C(N)=O [KISS1-305] (H-[dY][d4Pal]NSF[azaGly]L[Arg(Me)]F-NH2)

>  <test.target>
Colon cancer organoid

>  <experimental.endpoint>
viability at 10 µM

>  <observed>
66.9

$$$$
>  <compound>
Cc1cc2c(-c3ccco3)cnc(N[C@@H]3CCN(C)C[C@H]3C(=O)NC3CCCCC3)c2[nH]c1=O [GSK789]

>  <test.target>
Colon cancer organoid

>  <experimental.endpoint>
viability at 10 µM

>  <observed>
29.8

$$$$
>  <compound>
Cc1cc(CN)cc(C)c1-c1ncn(C)c1-c1ccnc2cc(F)ccc12

>  <test.target>
Colon cancer organoid

>  <experimental.endpoint>
viability at 10 µM

>  <observed>
53.8

$$$$

The following compounds each have a reported value; give each one's viability at 10 µM.
1. Cc1cc2c(-c3ccco3)cnc(N[C@H]3CCN(C)C[C@@H]3C(=O)NC3CCCCC3)c2[nH]c1=O [GSK791]
2. C=CC(=O)Nc1ccc2[nH]c(=O)n(C3CCN(Cc4ccc(-c5nc6cc[nH]c(=O)c6cc5-c5ccccc5)cc4)CC3)c2c1 [Borussertib]

[reply]
1. 50
2. 7.88

The following compounds each have a reported value; give each one's viability at 10 µM.
1. COc1cc2c(cc1-c1c(C)noc1C)ncc1[nH]c(=O)n([C@H](C)c3ccccn3)c12
2. COc1cc2c(NC3CCN(C(C)C)CC3)nc(N3CCC(F)(F)CC3)nc2cc1OCCCN1CCCC1

[reply]
78.1
62.4

The following compounds each have a reported value; give each one's viability at 10 µM.
1. Cc1c(C(=O)O)cc(-c2ccc(C3CCNCC3)cc2)c2ccc(-c3ccc(C(F)(F)F)cc3)cc12
2. Cc1cc(C)cc(C(=O)NOCCCCCC(=O)NO)c1
3. CC(C)(C#Cc1ccc(NC(=O)COc2ccccc2C(=O)c2ccccc2)c(Cl)c1)C(=O)O [BI 2439]
4. COCCc1ccc(-c2c(C)nc3c(N4CCOCC4)ccnn23)cn1 [JNJ-42396302]
5. CCC(=O)N[C@@H]1CC[C@H](C(=O)N(C)c2ccc(-c3nc4ccccc4o3)cc2)C1 [BI 99990]
6. CC(C)Oc1ccc(-c2c[nH]cc2CN(C)CCN)cc1
7. O=c1nc(-c2ccccn2)sc2ccccc12 [BTZO-1]
8. CNC(=O)c1ccccc1Nc1cc(Nc2ccc(N3CCOCC3)cc2OC)ncc1C(F)(F)F [VS-4718]

[reply]
1. 48.3
2. 220
3. 98.3
4. 97
5. 69.7
6. 47.4
7. 83.1
8. 4.5

---

Task for the reader: assign each of the following molecules its reported viability at 10 µM.
- Test system: Colon cancer organoid
- experiment.summary: Targeting of F14 CAF-induced therapy resistance in O23 CRC organoid-stroma co-culture. Cell viability is reported with SN-38.
- Assay type: functional, Homo sapiens
- measurement.parameters: Homo sapiens, Concentration 10 uM; read-out: Cell Viability
One number for each entry, in %.

>  <molecule>
Cc1c(NC(=O)COc2ccc(Cl)cc2C(=O)c2cc(F)cc(C(F)(F)F)c2)ccc(C(=O)O)c1F

>  <test.target>
Colon cancer organoid

>  <scale.unit>
%

>  <viability at 10 µM>
67.8

$$$$

The following molecules each have a reported value; give each one's viability at 10 µM.
1. CN(C)c1ncnc(-c2ccc3nc(Nc4cc(CN5CCN(C(=O)CC(F)(F)F)CC5)ccn4)[nH]c3c2)c1Cl
2. CCc1cc2cc(NS(=O)(=O)c3ccc(C#N)cc3)ccc2n(CC)c1=O
3. COc1cc(OC)cc(-c2noc(N3CCN(C)C4(CCN(c5ccccc5)CC4)C3)n2)c1
4. NS(=O)(=O)c1cc(NC(=O)C2(c3ccccc3Cl)CC2)ccc1Oc1cccc(Cl)c1
5. COc1cc(-c2cn(C)c(=O)c3cnccc23)c(OC)cc1CN(C)C
6. COc1ccccc1C(=O)Nc1cc2c(cc1N1CCCC1)n(C)c(=O)n2C

[reply]
1: 92.8; 2: 88.2; 3: 81.3; 4: 61; 5: 44.2; 6: 84.2

The following molecules each have a reported value; give each one's viability at 10 µM.
1. COc1cccc2c1C(=O)c1c(O)c3c(c(O)c1C2=O)CC(O)(C(=O)CO)CC3OC1CC(N)C(O)C(C)O1 (stereo not drawn)
2. CC1=C(C#N)C(c2ccc3[nH]nc(C)c3c2)C(C#N)=C(C)N1
3. COc1ccc2c(c1)O[C@@H](c1ccc(OC)c(OC)c1)C[C@H]2NC(=O)C1(c2ccc3c(c2)OC(F)(F)O3)CC1
4. CC[C@H](CC(=O)O)n1c(=O)c2ncccc2n(Cc2cn(C)c3cc(C)cc(C)c23)c1=O
5. Cc1nc(N2CC[C@H](O)C2)ncc1-c1cc(C(F)(F)F)cc2[nH]ncc12
6. CN([C@@H]1CCc2c(CC(=O)O)c3ccccc3n2C1)S(=O)(=O)c1ccc(F)cc1

[reply]
5.38
81.4
51.3
65
82.7
76.2
